Test system: Rattus norvegicus
protocol.summary: Antiinflammatory activity assessed as reduction of carrageenan-induced paw volume in intraperitoneally dosed Wistar rat after 3 hrs
Assay type: functional
Parameters: scale not given: the % may be the effect or the level left
Recorded Activity, one value per entry.
Expressed in %, but write only the number.

{"structure.string": "c1ccc(-c2nc[nH]c2-c2ccccc2)cc1", "result.unit": "%", "readout.value": 20.94}

-- ask Item COc1cc(-c2nc(-c3ccccc3)c(-c3ccccc3)[nH]2)ccc1O has what recorded Activity?
-- reply 58.14

-- ask Nc1ccc(-c2nc(-c3ccccc3)c(-c3ccccc3)[nH]2)cc1 , same question.
-- reply 81.4

-- ask O=[N+]([O-])c1ccccc1-c1nc(-c2ccccc2)c(-c2ccccc2)[nH]1 , same question.
-- reply 30.24

-- ask Fc1ccc(-c2nc(-c3ccccc3)c(-c3ccccc3)[nH]2)cc1 , same question.
-- reply 79.07

-- ask CN(C)c1ccc(-c2nc(-c3ccccc3)c(-c3ccccc3)[nH]2)cc1 , same question.
-- reply 69.77

====

Tested on: Mus musculus
protocol.summary: Antinociceptive activity in ip dosed Swiss albino mouse assessed as latency time after 60 mins by hot plate method
Assay type: functional
Recorded Activity, one value per entry.
Expressed in s, but write only the number.

Solved entries:
{"structure.string": "Oc1ccc(-c2nc(-c3ccccc3)c(-c3ccccc3)[nH]2)cc1", "readout.value": 8.63}
{"structure.string": "c1ccc(-c2nc(-c3ccccc3)c(-c3ccccc3)[nH]2)cc1", "readout.value": 6.07}
{"structure.string": "C=CCc1nc(-c2ccccc2)c(-c2ccccc2)[nH]1", "readout.value": 5.33}
{"structure.string": "Ic1ccc(-c2nc(-c3ccccc3)c(-c3ccccc3)[nH]2)cc1", "readout.value": 6.18}
{"structure.string": "Brc1ccc(-c2nc(-c3ccccc3)c(-c3ccccc3)[nH]2)cc1", "readout.value": 6.38}

-- ask Item COc1ccccc1-c1nc(-c2ccccc2)c(-c2ccccc2)[nH]1 has what recorded Activity?
-- reply 8.65

-- ask COc1ccc(-c2nc(-c3ccccc3)c(-c3ccccc3)[nH]2)cc1 , same question.
-- reply 9.67

-- ask O=[N+]([O-])c1ccc(-c2nc(-c3ccccc3)c(-c3ccccc3)[nH]2)cc1 , same question.
-- reply 5.82

-- ask Clc1ccc(-c2nc(-c3ccccc3)c(-c3ccccc3)[nH]2)cc1 , same question.
-- reply 8.98

-- ask c1ccc(-c2nc[nH]c2-c2ccccc2)cc1 , same question.
-- reply 5.05

-- ask O=[N+]([O-])c1cccc(-c2nc(-c3ccccc3)c(-c3ccccc3)[nH]2)c1 , same question.
-- reply 4.62

====

Tested on: Mus musculus
protocol.summary: Antinociceptive activity in ip dosed Swiss albino mouse assessed as latency time after 120 mins by tail flick method
Format: functional
property: Activity

Solved entries:
{"structure.string": "COc1ccc(-c2nc(-c3ccccc3)c(-c3ccccc3)[nH]2)cc1", "Activity": "10.83 s"}
{"structure.string": "Cc1cccc(-c2nc(-c3ccccc3)c(-c3ccccc3)[nH]2)c1", "Activity": "5.93 s"}

-- ask Item Clc1cccc(-c2nc(-c3ccccc3)c(-c3ccccc3)[nH]2)c1 has what recorded Activity?
-- reply 8.18 s

====

System: Mus musculus
protocol.summary: Antinociceptive activity in ip dosed Swiss albino mouse assessed as latency time after 120 mins by hot plate method
Format: functional
Recorded Activity, one value per entry.
Expressed in s, but write only the number.

{"structure.string": "O=[N+]([O-])c1ccc(-c2nc(-c3ccccc3)c(-c3ccccc3)[nH]2)cc1", "Activity / s": 5.83}
{"structure.string": "O=[N+]([O-])c1cccc(-c2nc(-c3ccccc3)c(-c3ccccc3)[nH]2)c1", "Activity / s": 5.62}
{"structure.string": "COc1ccccc1-c1nc(-c2ccccc2)c(-c2ccccc2)[nH]1", "Activity / s": 9.25}

-- ask Item Cc1cccc(-c2nc(-c3ccccc3)c(-c3ccccc3)[nH]2)c1 has what recorded Activity?
-- reply 5.72

-- ask CN(C)c1ccc(-c2nc(-c3ccccc3)c(-c3ccccc3)[nH]2)cc1 , same question.
-- reply 10.3
